Below, each entry is listed alongside its reported pIC50.
- Target desc: Glutamate NMDA receptor
- Test description: Ability to inhibit glutamate induced accumulation of [45 [Ca2+]] in cultured rat cortical neurons
- Type: functional
Friendly reminder that pIC50 comes from taking -log10 of the concentration in mol/L.

Examples from the recorded data:
Compound: CNC12CCCCC1CSc1ccccc12 (stereo not given)
pIC50: 6.15
//
Compound: CNC12CCCCC1Sc1ccccc12 (stereo not given)
pIC50: 6.68
//
Compound: NC12CCCCC1CCc1ccccc12 (stereo not given)
pIC50: 6.43

Sample c1ccc(C2(N3CCCCC3)CCCCC2)cc1 ; pIC50 observed: 6.70

For this compound ( CN[C@@]12CCCCC1CCc1ccccc12 (stereo not given in full) ), measured pIC50 is 6.09

The values you see were collected from ChEMBL document CHEMBL1126730.
